tested on: Symmetric di-Methyl Arginine in Z-138 cells; test: Z-138 Methylation Assay (In Cell Western for symmetric di-methyl arginine); type: cell-based; details: Homo sapiens, 96 hours incubation, symmetric di-methyl arginine normalised to DNA content, read-out: ICW EC50
MEASURE: EC50

Examples from the recorded data:
CC(=O)N1CCC(Nc2cc(C(=O)NC[C@H](O)CN3CCc4nc(N)sc4C3)ncn2)CC1
> 1000 nM
Cc1nc2c(s1)CN(C[C@@H](O)CNC(=O)c1cc(NC3COC3)ncn1)CC2
> 1000 nM
O=C(COc1cccc2cccnc12)NCC(O)CN1CCc2cccnc2C1 (stereo not shown)
> 1000 nM

Request: EC50, test system Symmetric di-Methyl Arginine in Z-138 cells, entry CC(=O)N1CCC(Nc2cc(C(=O)NC[C@H](O)CN3CCc4ncn(C)c4C3)ccn2)CC1 > 1000 nM

Request: EC50, test system Symmetric di-Methyl Arginine in Z-138 cells, entry CC(=O)N1CC(Nc2cc(C(=O)NC[C@H](O)CN3CCc4c(ncn4C)C3)ncn2)C1 > 1000 nM

Request: EC50, test system Symmetric di-Methyl Arginine in Z-138 cells, entry CC(=O)N1CCC(Nc2cc(C(=O)NC[C@H](O)CN3CCc4sc(N)nc4C3)ccn2)CC1 > 1000 nM

Request: EC50, test system Symmetric di-Methyl Arginine in Z-138 cells, entry O=C(COc1cccc2cccnc12)NCC(O)CN1CCc2sccc2C1 (stereo not shown) < 100 nM

Request: EC50, test system Symmetric di-Methyl Arginine in Z-138 cells, entry Nc1nc2c(s1)CCN(C[C@@H](O)CNC(=O)c1cc(NC3COC3)ncn1)C2 > 1000 nM

Request: EC50, test system Symmetric di-Methyl Arginine in Z-138 cells, entry Cc1nc2c([nH]1)CCN(C[C@@H](O)CNC(=O)c1cc(NC3COC3)ncn1)C2 > 1000 nM

Request: EC50, test system Symmetric di-Methyl Arginine in Z-138 cells, entry Cn1cnc2c1CCN(C[C@@H](O)CNC(=O)c1cc(NC3COC3)ncn1)C2 > 1000 nM

Request: EC50, test system Symmetric di-Methyl Arginine in Z-138 cells, entry CC(=O)N1CC(Nc2cc(C(=O)NC[C@H](O)CN3CCc4sc(N)nc4C3)ncn2)C1 > 1000 nM
